MEASUREMENT PROTOCOL: LNP encapsulation efficiency by Ribogreen assay (Example 16 LNPs)
Format: physicochemical
EXPERIMENTAL PARAMETERS: Example 16 LNPs: 47.5% Ionizable Lipid: 40% cholesterol: 2.5% PEG-2000 DMG: 10% DPSC, N/P 4-8
METRIC NAME: Mean Encapsulation Efficiency

- MOLECULE: "CC/C=C\\CCCCOC(CCC(=O)OCCCCCCCN(CCO)CCCN(CCCCCCCCCOC(=O)C(CCCC)CCCCCC)CCCCCCCCCOC(=O)C(CCCC)CCCCCC)OCCCC/C=C\\CC (stereo not shown)"
  REPORTED RESULT: "62.8%"
- MOLECULE: "CC/C=C\\CCCCOC(CCC(=O)OCCCCCCN(CCO)CCN(CCCCCCCCCOC(=O)C(CCCC)CCCCCC)CCCCCCCCCOC(=O)C(CCCC)CCCCCC)OCCCC/C=C\\CC (stereo not shown)"
  REPORTED RESULT: "70.1%"
- MOLECULE: "CC/C=C\\CCCCOC(CCC(=O)OCCCCCCN(CCCO)CCN(CCCCCCCCCOC(=O)C(CCCC)CCCCCC)CCCCCCCCCOC(=O)C(CCCC)CCCCCC)OCCCC/C=C\\CC (stereo not shown)"
  REPORTED RESULT: "60.9%"
- MOLECULE: "CC/C=C\\CCCCOC(CCC(=O)OCCCCCCCN(CCCO)CCN(CCCCCCCCCOC(=O)C(CCCC)CCCCCC)CCCCCCCCCOC(=O)C(CCCC)CCCCCC)OCCCC/C=C\\CC (stereo not shown)"
  REPORTED RESULT: "63.3%"
- MOLECULE: "CC/C=C\\CCCCOC(CCC(=O)OCCCCCCN(CCO)CCCN(CCCCCCCCCOC(=O)C(CCCC)CCCCCC)CCCCCCCCCOC(=O)C(CCCC)CCCCCC)OCCCC/C=C\\CC (stereo not shown)"
  REPORTED RESULT: "61.1%"
- MOLECULE: "CC/C=C\\CCCCOC(CCC(=O)OCCCCCCCN(CCO)CCCN(CCCCCCOC(=O)C(CCCC)CCCCCC)CCCCCCOC(=O)C(CCCC)CCCCCC)OCCCC/C=C\\CC (stereo not shown)"
  REPORTED RESULT: "69.4%"
- MOLECULE: "CC/C=C\\CCCCOC(CCC(=O)OCCCCCCCN(CCCCCCCOC(=O)CCC(OCCCC/C=C\\CC)OCCCC/C=C\\CC)CCCN(CCO)CCCCCCCCCOC(=O)C(CCCC)CCCCCC)OCCCC/C=C\\CC (stereo not shown)"
  REPORTED RESULT: "72.4%"
- MOLECULE: "CC/C=C\\CCCCOC(CCC(=O)OCCCCCCN(CCO)CCCN(CCCCCCOC(=O)CCC(OCCCC/C=C\\CC)OCCCC/C=C\\CC)CCCCCCOC(=O)CCC(OCCCC/C=C\\CC)OCCCC/C=C\\CC)OCCCC/C=C\\CC"
  REPORTED RESULT: "80.8%"
- MOLECULE: "CC/C=C\\CCCCOC(CCC(=O)OCCCCCCN(CCO)CCCN(CCCCCCCC(=O)OCCCCCCCCC)CCCCCCCC(=O)OCCCCCCCCC)OCCCC/C=C\\CC"
  REPORTED RESULT: "46.0%"
- MOLECULE: "CC/C=C\\CCCCOC(CCC(=O)OCCCCCCCN(CCCCCCCOC(=O)CCC(OCCCC/C=C\\CC)OCCCC/C=C\\CC)CCCN(CCO)CCCCCCCC(=O)OCCCCCCCCC)OCCCC/C=C\\CC"
  REPORTED RESULT: "66.1%"

The reported numbers originate from patent US20240335541A1.
